- systemTested: FRMPD3, Q5JV73
- Sequence (Q5JV73 12-100): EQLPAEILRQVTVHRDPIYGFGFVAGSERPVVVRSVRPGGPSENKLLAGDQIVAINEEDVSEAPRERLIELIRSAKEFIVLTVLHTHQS
- assayDetails: holdup assay
- Parameters: key: below the threshold = too weak to quantify, mostly under pKd 3.1 to 4
- measurementConditions: plain residues with an end cap or a label only (N-terminal biotin on a linker: ahx)
resultType: pKd

Worked set:
binder | pKd
PSASCAVTAA [PDLIM4, P50479;P50479-2] | below the threshold
RAVEEEESRF [PSCDBP, O60759] | below the threshold
HNAFLSVTTV [PDZRN4, Q6ZMN7] | below the threshold
TVICWPGSLV [LNX2, Q8N448] | below the threshold
SDSSGQEYSL [KCTD3, Q9Y597] | 3.7

Fill in pKd for each of the 5 binders listed.
1. ESLLLGPSNF [SHROOM4, Q9ULL8]
2. NRKREIFSNF [NHERF2, Q15599]
3. GYDWGPATDL [TJP3, O95049]
4. RRRKRKRTYL [HPV49-L2, P36762]
5. LSDPSVSTVV [GRIN1, Q05586;Q05586-2]

1: below the threshold; 2: below the threshold; 3: below the threshold; 4: 3.5; 5: below the threshold

Cited source: paper PMC9482650
